The origin of these recorded values is paper PMC11601558.

- experimental-details: JNT-517 plasma pharmacokinetics in healthy volunteers
- Assay type: in vivo, human
- measurement-setup: human, plasma, oral; SAD 25 mg; %CV 50.7; read-out: Mean T1/2 (converted)
measured-parameter: half-life

Value of measured half-life for the entry NC(=O)N1CCC[C@@H](N(C(=O)NCc2ccc(OC(F)(F)F)cc2F)C2CC2)C1 : 7.78 h

====

- experimental-details: JN-170 plasma pharmacokinetics in C57Bl/6J mice, single oral dose
- Type: in vivo, mouse
- measurement-setup: male, C57Bl/6J, mouse, plasma, oral, 250 mg/kg, 250 mg/kg oral, 12 h; individual C57Bl/6 mice; read-out: JN-170 plasma level (Fig 2a)
measured-parameter: concentration at 12 h (ng/mL)
Numeric only. Scale: ng/mL

The compound N#Cc1ccc(-c2noc([C@]3(C(F)(F)F)CCN(C(=O)NCCC4(N)CC4)C3)n2)cc1 showed concentration at 12 h equal to 1760
